System: COLO 205 colon
Assay Explanation: NCI tumour cell line growth inhibition, 48 h
The following molecules are shown together with reported TGI values.
Quick reminder: number only, in µM, skip the unit.

Line Notation: Cc1cc2c(cc1C(=O)c1ccc(N)cc1)OCO2
TGI [µM]: 41.5
//
Line Notation: CC1CCN(C(=O)OCc2nc3nc(Cl)nc(N4CCOCC4)c3[nH]2)CC1
TGI [µM]: 4.99
//
Line Notation: Nc1ccccc1N=Cc1cc2cc([N+](=O)[O-])ccc2s1
TGI [µM]: 45.5
//
Line Notation: COc1ccc(-c2nnc(N3CCN(C(=O)CN4CCN(c5ccccc5)CC4)CC3)nc2-c2ccc(OC)cc2)cc1
TGI [µM]: 57.2

Attention now turns to another entry.
Look up TGI: O=C1CCC(=O)c2c1c(O)c1ccncc1c2O
20.8
